Measured Ki of individual entries
SYSTEM: T1, recombinant human melanocortin-1 receptor (hMCR-1a) in membrane homogenates of HEK-293 cells (human, UniProt Q01726 1-317)
T1 construct: whole, on cells; Used as membrane homogenates, not intact cells; also called hMCR-la; MC-1
T1 sequence (Q01726 whole entry): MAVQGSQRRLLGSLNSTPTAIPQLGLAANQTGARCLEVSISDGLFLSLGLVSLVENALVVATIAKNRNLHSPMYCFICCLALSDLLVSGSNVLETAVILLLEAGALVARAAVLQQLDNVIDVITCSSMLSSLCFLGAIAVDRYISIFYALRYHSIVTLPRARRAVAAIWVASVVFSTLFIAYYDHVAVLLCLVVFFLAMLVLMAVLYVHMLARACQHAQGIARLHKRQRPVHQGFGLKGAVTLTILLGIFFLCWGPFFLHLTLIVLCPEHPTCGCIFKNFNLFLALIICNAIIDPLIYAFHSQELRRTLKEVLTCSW
ASSAY PROTOCOL: competitive inhibition of [I125]-NDP-alpha-MSH, hMCR-1 HEK-293 membranes
[ ]: non-standard residue; d: D form. Nle = CCCC[C@H](N)C(=O)O
Just so you know, I need the unit written after the number.

{"BINDER": "Ac-[Nle]A[dF]RAW-NH2 (SMILES CCCC[C@H](NC(C)=O)C(=O)N[C@@H](C)C(=O)N[C@H](Cc1ccccc1)C(=O)N[C@@H](CCCNC(=N)N)C(=O)N[C@@H](C)C(=O)N[C@@H](Cc1c[nH]c2ccccc12)C(N)=O, synthetic linear peptide) [Ac-Nle-Ala-D-Phe-Arg-Ala-Trp-NH2]", "Ki": "6.67 µM"}

Now for another entry.
Item: Ac-[Nle]AHFRGW-NH2 (SMILES CCCC[C@H](NC(C)=O)C(=O)N[C@@H](C)C(=O)N[C@@H](Cc1c[nH]cn1)C(=O)N[C@@H](Cc1ccccc1)C(=O)N[C@@H](CCCNC(=N)N)C(=O)NCC(=O)N[C@@H](Cc1c[nH]c2ccccc12)C(N)=O, synthetic linear peptide) [Ac-Nle-Ala-His-Phe-Arg-Gly-Trp-NH2] | Ki: 0.34 µM

All figures here come from patent US20150119341A1.
